Molecular target: T1, DVL3, Q92997
T1 sequence (Q92997 244-331, limits assumed, looked up): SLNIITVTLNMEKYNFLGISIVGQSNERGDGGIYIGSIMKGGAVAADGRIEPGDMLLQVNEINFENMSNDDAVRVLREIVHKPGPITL
Assay: holdup assay
Set-up: key: below the threshold = too weak to quantify, mostly under pKd 3.1 to 4
Settings: plain residues with an end cap or a label only (N-terminal biotin on a linker: ttds)
MEASURED PARAMETER: pKd

DKDPHSETAL [TMIGD1, Q6UXZ0] ... below the threshold
VDFPPKESSL [ACVR2A, P27037] ... below the threshold
RPLPRKVSQL [DOCK4, Q8N1I0] ... below the threshold
EMDRRPATVV [PLCB4, Q15147] ... below the threshold
RLPKIKETTV [FRMPD4, Q14CM0] ... 3.43

get_value(item= SGSRPSATVV [HPV73-E6, Q82005] , readout=pKd) returns 3.5

Quick note, pKd for PRVKPQRSKV [PPP1R13L, Q8WUF5] landed at below the threshold

Reported pKd of FHPLGADSQV [SLC2A1, P11166] : below the threshold

Reported pKd for RLQRRRETQV [HPV18-E6, P06463] was below the threshold
